molecular target: Glutamate NMDA receptor (Rattus norvegicus) (UniProt P35439+Q00959+Q00960+Q00961+Q62645+Q8VHN2+Q9R1M7); assay: Evaluated to antagonize NMDA responses in a rat cortical slice preparations; type: functional
Assay metric: Kb (nM)

# Test smiles, Assay metric, Recorded number
measured = [
    ("COC(=O)Cc1c(-c2ccccc2)c(O)nc2cc(Cl)ccc12", "Kb", 4000),
]

[P] O=C(O)C(=O)Nc1c(-c2ccccc2)c(O)nc2cc(Cl)ccc12
[Q] CN(C)CCNc1c(-c2ccccc2)c(O)nc2cc(Cl)ccc12
Among P and Q , which shows a numerically higher Kb result? Output the label that corresponds to your choice.
Q

Measured values drawn from ChEMBL document CHEMBL1129956 for this set.
